Tested on: K4 kissing-loop RNA reporter;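 also: bound reporter read as fluorescence of individual clusters on recovered sequencing chips by microscopy, with normalized cluster intensities fitted with a binding model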
Assay: apparent KD of K4 kissing-loop reporter; higher = weaker reporter binding
Settings: Eterna round: R107; input ligand: tryptophan 2.4 mM
Binned apparent KD of K4 kissing-loop reporter; ranges: low interval: < 100 nM; middle interval: ≥ 100 nM and < 200 nM; high interval: ≥ 200 nM

sequence.chain	assigned.category
AUGGUUGUCGUAGGAUAUGUAGGAUAUUCUAAAAUAUGAAGUGAUGUUUCUAUAAUAAGAAGAAGGACAGAAGGACGAUAACCAC [FmnBS 1 - SaraBot transfer #DoubleAptamer]	middle interval
AAUAAUCUAGGUGAUACCAGCUCAACAUGAGUGAUGUUCAUGAAAUAAUGUAGAGUUGAGAGCCCUUGGCAGCACCUAGAUAAUA [KL-SSTheoB5]	high interval
UAAGAGGACCACUGCAAAAGUCCUCGAAUACGAGGACCGGUACGGCCGCCACUCGAUAAUUUGCAGUGAUGUUGCAAGUAAGAAU [BrourdMod 4 - Jieux - Same State Tryptophan A]	low interval
AUGCCUAUGACGGCCGCCACUGAGAGUCAGUGAUGUUGACUCGAUACAGCUGAUUAGCAGCUAAUCAGGACCGGGUCAUACACAU [Tryp B SS t3]	middle interval
ACGAAUCCAGCGGCCGCCACUAUUCGAUGAGUGAUGUUUAGGAGUAGAUCAUACCGCCGUGGUAAUAGGACCGGGCUCUUUGUAG [theeternabot_exclusion_KL_Trp_B_36]	high interval
GGAUCCACCAGUGAUGUUGGAGAAAACUUCAAGGAUAUGACGAAAGUCAGAAGGUGGUAGACUGGGCAAAGUCCGGUCGGAUCCA [FmnA10 U29+G66]	high interval
AAUGUACAAGUGAUGUUUGUACUUUCCGAAGGAGCGUCUAAUAAGACAGGUAGGUCGCGGAUUCUCUUAAUUAUCAGGUCAUUAA [JR_ExcArginiA_Sub017]	low interval
UGUACCGAGUCAGGAUAUGGCGUCGAAAGACGAAUCCUAGUGAUGUUAGUGAUCUGCGAAAGCAGUCCAGAAGGGACUUGGUACU [FmnBS 26 U50]	high interval
GGGCAAGUGAGUGAUGUUCGAUGAUGCUUAAAGGAUAUGUAGGAAUACAGAAGGUUAUAUUCCCUGACAUUAGAUCUUUACAGGG [theeternabot_exclusion_KL_FMN_A_44]	low interval
AAAUAUUCGAGUGAUGUUCGAAUAAUAUCAGAGGAUAUGCAUAAAAGCAGAAGGCUGUAUUACUUUUUGUUACGAAAUUUUAUAA [JR_SSFMNA_Sub020]	middle interval
UUACUGCCCAGUGAUGUUGGGUAUCGGCGGCGAGGACCGGUACGGCCGCCACUCGGCGCACAGGCGGAGUGAUGUUUCGCUUAAA [Same State Tryptophan A GF 12]	middle interval
AAAUAGAUCAGUCACCCAGUGAUGUUGGAAGGAGCGUGCGAAAGCACAGGUAGGUCGCCGAAAUAAAAUUGGCUGAUCAAAAUAA	middle interval
UGUUUUUACUGAAGGAGCGGCAAUUGAUACGUAGAUAUAGUGAUGUUAUAUAAGAUAGAGAGCCAGGUAGGUCGCAGAUUUUUUC [ExArgB.Y]	middle interval
GCUAUGGUAGGAAGGAGCGCUUAUUUAUUAAUAAGAGUGAUGUUCGAUAGUAGAUAUUUAUAGCAGGUAGGUCGCCUACUAUAGC [Arginine B K4 12]	middle interval
UUGAGCCUGACGAAAGUCAGGCUCUGCGAGCGAGGACCGGUACGGCCGCCACUCGGUGCAGUGAUGUUGCAUGGCCGCAAGGCCG [#2 Exclusion - Tryptophan A Attempt #14 (HarryS)]	high interval
CGGCGGAGUGAUGUUCUGCUCGCUCCGGAUACCAGCUUCGCCAGAGGCCCUUGGCAGCCGGGCGGCCCAGUGAUGUUGGGUUGCG [Same State Theophylline A GF 17]	high interval
GCCGUACGCAUGGAUACCAGCACUCGUUGAGUGAUGUUCACGAGGUGGUAUUCGACGGGCUGCCCUUGGCAGCCAUGCGUACGGC	middle interval
GGCAGUGAUGUUGCCAGUGGCAGAUGCGAAGGAGCGCGGUGAGACGCAGGUAGGUCGCGCAUUGAAAUUGCUGUCACUAGAAUGC [whbob_Ex_Arginine_A_2t127]	high interval
